# tested system: Recombinant human HSD17B13 enzyme (Homo sapiens, UniProt Q7Z5P4)
# Sequence (Q7Z5P4 20-300): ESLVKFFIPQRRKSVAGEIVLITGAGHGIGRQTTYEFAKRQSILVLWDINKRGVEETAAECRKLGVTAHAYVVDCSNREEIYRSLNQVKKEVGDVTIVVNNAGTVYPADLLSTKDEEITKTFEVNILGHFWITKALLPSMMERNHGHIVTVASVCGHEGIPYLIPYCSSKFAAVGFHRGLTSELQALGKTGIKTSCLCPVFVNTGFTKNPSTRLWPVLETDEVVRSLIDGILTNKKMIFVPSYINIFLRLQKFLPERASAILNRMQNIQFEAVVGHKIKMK
# method summary: HSD17b13 NAD(P)H-Glo biochemical assay
# settings: 50 uM estradiol, 1 mM NAD+, NAD(P)H-Glo luminescence; read-out: HSD17β13 IC50
recorded metric: IC50

In: Would you kindly share the measured IC50 for `Cn1nc(-c2cc(C(F)(F)F)c(F)c(O)c2F)c2cnc(N3CC(=O)NCC34CC4)cc21` ?
Out: < 100 nM

More entries:
In: Would you kindly share the measured IC50 for Cc1nnc(C2CN(c3ncc4c(-c5cc(C(F)(F)F)c(F)c(O)c5F)nn(C)c4n3)CCO2)o1 (centres unmarked) ?
Out: 100 to 1000 nM

In: Next compound: `Cn1nc(-c2cc(C(F)(F)F)c(F)c(O)c2F)c2cnc(N3CCC(CO)CC3)nc21`
Out: < 100 nM

In: Next compound: `Cn1nc(-c2cc(C(F)(F)F)c(F)c(O)c2F)c2cc(F)c(N3CCOCC34CC4)cc21`
Out: < 100 nM

In: Next compound: `O=C(c1ccc2oc(-c3cc(O)c(F)c(F)c3)nc2c1)N1CCOCC1`
Out: 100 to 1000 nM

====

# tested system: Recombinant human HSD17B13 enzyme (Homo sapiens, UniProt Q7Z5P4)
# method summary: HSD17b13 NAD(P)H-Glo biochemical assay
# settings: 50 uM estradiol, 1 mM NAD+, NAD(P)H-Glo luminescence; read-out: HSD17β13 IC50
pIC50: −log10 of the molar value.
recorded metric: pIC50

In: Query pIC50 on Recombinant human HSD17B13 enzyme (Homo sapiens, UniProt Q7Z5P4) for CS(=O)(=O)N1CCC(c2ccc3c(-c4cc(O)c(F)c(C(F)(F)F)c4)n[nH]c3c2)CC1 [Compound 15]
Out: 6.00 to 7.00

In: Next compound: CS(=O)(=O)N1CCN(c2ccc3oc(-c4cc(C(F)(F)F)c(F)c(O)c4F)nc3c2)CC1 [Compound 7]
Out: 6.00 to 7.00

In: Next compound: Cn1nc(-c2cc(C(F)(F)F)c(F)c(O)c2F)c2cnc(N3CCC(C(N)=O)CC3)nc21 [Compound 18.09]
Out: > 7.00

In: Next compound: Cn1nc(-c2cc(C(F)(F)F)c(F)c(O)c2F)c2cnc(N3CCN(S(C)(=O)=O)C4(CCC4)C3)nc21 [Compound 18.63]
Out: > 7.00

More entries:
In: Query pIC50 on Recombinant human HSD17B13 enzyme (Homo sapiens, UniProt Q7Z5P4) for Cn1nc(-c2cc(C(F)(F)F)c(F)c(O)c2F)c2cnc(N3CCN(C(=O)NC4CCCCC4)CC3)nc21 [Compound 18.125]
Out: > 7.00

Origin of values: patent US20240083861A1
